- ASSAYED SYSTEM: CaCYP51 Y132F+K143R (Candida albicans, UniProt P10613, K143R/Y132F)
- EXPERIMENT DESCRIPTION: CYP51 reconstitution assay
Parameter pIC50: see the listing below.
Note: pIC50 values are expressed as the negative base-10 logarithm of concentration in M.

Consider the following illustrative entries.
INSERT INTO results (compound, assayed_system, test_value) VALUES
  ('CCC(C)n1ncn(-c2ccc(N3CCN(c4ccc(OCC5COC(Cn6cncn6)(c6ccc(Cl)cc6Cl)O5)cc4)CC3)cc2)c1=O (stereo not drawn) [Itraconazole, itraconazole]', 'CaCYP51 Y132F+K143R (Candida albicans, UniProt P10613, K143R/Y132F)', 6.72),
  ('CC[C@@H]([C@H](C)O)n1ncn(-c2ccc(N3CCN(c4ccc(OC[C@@H]5CO[C@@](Cn6cncn6)(c6ccc(F)cc6F)C5)cc4)CC3)cc2)c1=O [Posaconazole, posaconazole]', 'CaCYP51 Y132F+K143R (Candida albicans, UniProt P10613, K143R/Y132F)', 6.61);

So what's the measured pIC50 for this one? OC(Cn1cncn1)(Cn1cncn1)c1ccc(F)cc1F [Fluconazole, fluconazole]
5.23

====

// values below are reported remaining activity at 4 µM
- ASSAYED SYSTEM: CaCYP51 G450E (Candida albicans, UniProt P10613, G450E)
- Construct: made in house; host or cells: E. coli DH5α (pCWori+)
- Sequence (P10613 whole entry, looked up, stated change not applied): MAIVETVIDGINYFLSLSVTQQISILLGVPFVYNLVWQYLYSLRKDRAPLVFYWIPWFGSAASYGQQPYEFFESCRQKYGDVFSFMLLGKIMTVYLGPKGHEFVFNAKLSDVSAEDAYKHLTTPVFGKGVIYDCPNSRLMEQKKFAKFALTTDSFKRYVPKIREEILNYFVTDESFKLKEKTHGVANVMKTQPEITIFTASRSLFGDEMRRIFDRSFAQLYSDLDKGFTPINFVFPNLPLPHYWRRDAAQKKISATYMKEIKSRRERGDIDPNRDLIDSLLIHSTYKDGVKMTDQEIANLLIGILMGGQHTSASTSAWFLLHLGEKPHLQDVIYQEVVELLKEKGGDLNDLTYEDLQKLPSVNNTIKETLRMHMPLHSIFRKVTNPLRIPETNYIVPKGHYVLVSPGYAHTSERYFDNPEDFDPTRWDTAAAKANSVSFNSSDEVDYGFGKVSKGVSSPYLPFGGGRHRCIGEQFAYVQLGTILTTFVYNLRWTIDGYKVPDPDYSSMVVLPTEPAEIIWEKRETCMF
- EXPERIMENT DESCRIPTION: CYP51 reconstitution assay
- Format: biochemical
- MEASUREMENT PARAMETERS: 0.25 h, 4 μM triazole, % of activity without triazole, read-out: Residual CYP51 activity (%) ± SD
// unit must come after the numeric part

For the compound CCC(C)n1ncn(-c2ccc(N3CCN(c4ccc(OCC5COC(Cn6cncn6)(c6ccc(Cl)cc6Cl)O5)cc4)CC3)cc2)c1=O (stereo not shown) , what remaining activity at 4 µM is on record?
7.66%

====

- ASSAYED SYSTEM: CaCYP51 G450E (Candida albicans, UniProt P10613, G450E)
- EXPERIMENT DESCRIPTION: CYP51 reconstitution assay
- MEASUREMENT PARAMETERS: mean ± SD, duplicate
METRIC: pIC50
Reminder that pIC50 is minus the log10 of a molar concentration.

A selection of reference data follows.
INSERT INTO measurements (compound, assayed_system, test_value) VALUES
  ('CC[C@@H]([C@H](C)O)n1ncn(-c2ccc(N3CCN(c4ccc(OC[C@@H]5CO[C@@](Cn6cncn6)(c6ccc(F)cc6F)C5)cc4)CC3)cc2)c1=O [Posaconazole, posaconazole]', 'CaCYP51 G450E (Candida albicans, UniProt P10613, G450E)', 6.04),
  ('CCC(C)n1ncn(-c2ccc(N3CCN(c4ccc(OCC5COC(Cn6cncn6)(c6ccc(Cl)cc6Cl)O5)cc4)CC3)cc2)c1=O (stereo not drawn) [Itraconazole, itraconazole]', 'CaCYP51 G450E (Candida albicans, UniProt P10613, G450E)', 6.34);

Here's the next entry for you.
Reported pIC50 for OC(Cn1cncn1)(Cn1cncn1)c1ccc(F)cc1F [Fluconazole, fluconazole] : what is it?
5.97

====

- ASSAYED SYSTEM: CaCYP51 Y132F+K143R (Candida albicans, UniProt P10613, K143R/Y132F)
- Construct: made in house; host or cells: E. coli DH5α (pCWori+)
- EXPERIMENT DESCRIPTION: CYP51 reconstitution assay
- Format: biochemical
- MEASUREMENT PARAMETERS: 0.25 h, read-out: Residual CYP51 activity (%) ± SD
- Experimental: Azole antifungal agents were added in 2.5 μl dimethyl sulfoxide, followed by 10 min of incubation at 37°C prior to assay initiation with 4 mM β-NADPH-Na4. The samples were then shaken for 15 min at 37°C. […]
Readings of remaining activity at 4 µM for the listed compounds
Value expressed in %; do not type the unit.

INSERT INTO assay_data (compound, test_value) VALUES
  ('C[C@@H](c1ncncc1F)[C@](O)(Cn1cncn1)c1ccc(F)cc1F', 8.86),
  ('CCC(C)n1ncn(-c2ccc(N3CCN(c4ccc(OCC5COC(Cn6cncn6)(c6ccc(Cl)cc6Cl)O5)cc4)CC3)cc2)c1=O (stereo not shown)', 0.23),
  ('OC(Cn1cncn1)(Cn1cncn1)c1ccc(F)cc1F', 62);

Please look at the following compound next.
Can you share its remaining activity at 4 µM? I mean this compound: CC[C@@H]([C@H](C)O)n1ncn(-c2ccc(N3CCN(c4ccc(OC[C@@H]5CO[C@@](Cn6cncn6)(c6ccc(F)cc6F)C5)cc4)CC3)cc2)c1=O
0.86
